- METHOD SUMMARY: Displacement of [3H]-Flumazenil from GABAA/BZD receptor in rat cortical membranes
- Format: cell membranes
MEASURED PARAMETER: Ki

> print(dat)
                     compound.smiles  result
1  CCOC(=O)c1cnc2ccc(C(F)(F)F)cc2c1O  122 nM

* * *

- TARGET SYSTEM: GABA-A receptor; alpha-1/beta-2/gamma-2 (Homo sapiens) (UniProt P14867+P47870+P18507)
- METHOD SUMMARY: Positive allosteric modulation of recombinant human GABAA alpha1beta2gamma2s receptor expressed in Xenopus laevis oocytes assessed as GABA-stimulated current amplitude at 300 uM measured for 2 min by electrophysiological method relative to control
- Format: cell-based
MEASURED PARAMETER: Activity (%)

> print(dat)
                                   compound  measured.parameter  result
1           CC(C)[C@H]1CC[C@@H](C)C[C@@H]1O            Activity     226
2           C=C(C)[C@H]1CC[C@H](C)C[C@@H]1O            Activity     280
3  CC1=CCC(C(C)(C)O)CC1 (centres undefined)            Activity    91.2
4                                 OC1CCCCC1            Activity    30.1

Numbers sourced from ChEMBL document CHEMBL4346691.
